target: T1, human MSLN-R3 protein (Met487-Ser606 of NCBI AAH09272.1) expressed on HEK293T-hMSLN-R3 cells (human, UniProt Q13421 487-606); experiment: FACS on HEK293T-hMSLN-R3 cells;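 also: flow cytometry binding of test chimeric antibodies to cells after 2 h incubation on ice, with values derived from the mean fluorescence intensity of the cells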
T1 construct: also called Region3
T1 sequence (Q13421 495-614): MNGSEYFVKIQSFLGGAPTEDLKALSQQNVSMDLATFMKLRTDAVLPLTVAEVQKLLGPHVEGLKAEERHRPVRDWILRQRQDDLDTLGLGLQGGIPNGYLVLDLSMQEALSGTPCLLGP
measurementType: EC50 (nM)
Report the value in nM with no unit label.

// returns reported EC50 for input S009-F7.48.1 (antibody, human IgG1, kappa, V domains shown, human-murine chimeric antibody, human IgG1/kappa constant regions) VH: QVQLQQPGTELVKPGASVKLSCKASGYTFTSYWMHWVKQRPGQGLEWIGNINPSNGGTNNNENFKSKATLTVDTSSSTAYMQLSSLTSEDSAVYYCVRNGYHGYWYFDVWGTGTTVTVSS VL: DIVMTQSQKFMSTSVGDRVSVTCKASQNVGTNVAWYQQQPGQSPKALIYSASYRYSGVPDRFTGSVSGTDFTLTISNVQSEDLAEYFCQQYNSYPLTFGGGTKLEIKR 1.87

Param item = S009-F7.30.5 (antibody, human IgG1, kappa, V domains shown, human-murine chimeric antibody, human IgG1/kappa constant regions) VH: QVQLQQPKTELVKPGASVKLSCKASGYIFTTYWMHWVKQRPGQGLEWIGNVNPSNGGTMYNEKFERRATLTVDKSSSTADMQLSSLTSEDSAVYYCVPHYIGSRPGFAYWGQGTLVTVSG VL: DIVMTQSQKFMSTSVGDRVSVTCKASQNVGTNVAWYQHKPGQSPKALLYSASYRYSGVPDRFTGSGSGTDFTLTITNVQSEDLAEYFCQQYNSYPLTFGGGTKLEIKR ; retrieve measured EC50. 0.24

Recorded EC50 of S009-F7.21.16 (antibody, human IgG1, kappa, V domains shown, human-murine chimeric antibody, human IgG1/kappa constant regions) VH: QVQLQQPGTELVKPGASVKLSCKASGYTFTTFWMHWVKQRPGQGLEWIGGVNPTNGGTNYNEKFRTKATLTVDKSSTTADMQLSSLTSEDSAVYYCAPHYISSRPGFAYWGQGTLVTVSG VL: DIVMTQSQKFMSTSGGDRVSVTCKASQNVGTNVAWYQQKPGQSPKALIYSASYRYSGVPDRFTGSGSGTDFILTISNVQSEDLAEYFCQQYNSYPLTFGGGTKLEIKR , please. 0.16
